Data origin: PubChem BioAssay AID588852

Target: Muscarinic acetylcholine receptor M1 (Homo sapiens)
Assay: CHRM1 blockers of acetylcholine calcium response – CHO-K1 cells, Fluo-8 calcium fluorescence, 1536-well, primary screen (AID 588852);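 note: peak over basal fluorescence ratio during 140 s after agonist addition; 0% = ACh EC80 plus DMSO and 100% = DMSO alone without agonist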
Conditions: CHO-K1 hM1, Fluo-8 calcium fluorescence, ACh EC80 antagonist; at 3 µM; stronger effect = higher value
In all, about 360,000 compounds went through this assay and about 4,600 (1.3%) were called active. Shown is part of a subset that was picked to be rich in actives.

COMPOUND: COC(=O)CN1C(=O)C2(C(C(=O)OC)=C(N)Oc3ccccc32)C2=C1CC(C)(C)CC2=O (configuration not stated)
TARGET: Muscarinic acetylcholine receptor M1 (Homo sapiens)
MEASUREMENT_UNIT: %
inhibition: -6.88

COMPOUND: O=c1[nH]c2ccccc2n1C1CCN(C(c2ccccc2)c2nnnn2Cc2ccccc2)CC1 (configuration not stated)
TARGET: Muscarinic acetylcholine receptor M1 (Homo sapiens)
MEASUREMENT_UNIT: %
inhibition: -3.28

COMPOUND: COC(=O)C1=C(c2cccc(OCc3ccccc3)c2)C[C@@H]2CC[C@H]1N2C(=O)NNCc1ccccc1
TARGET: Muscarinic acetylcholine receptor M1 (Homo sapiens)
MEASUREMENT_UNIT: %
inhibition: 18.8

COMPOUND: Cc1ccc(CN2CCCC(C(=O)c3ccc4c(c3)OCO4)C2)cc1C (configuration not stated)
TARGET: Muscarinic acetylcholine receptor M1 (Homo sapiens)
MEASUREMENT_UNIT: %
inhibition: 84.4

COMPOUND: COC(=O)C1=C(c2ccc(-c3ccccc3)c(F)c2)C[C@@H]2CC[C@H]1N2C(=O)NCc1ccc(F)cc1
TARGET: Muscarinic acetylcholine receptor M1 (Homo sapiens)
MEASUREMENT_UNIT: %
inhibition: 1.14

COMPOUND: COc1cc(C(=O)N2Cc3ccc(Br)cc3-n3nncc3C2)cc(OC)c1OC
TARGET: Muscarinic acetylcholine receptor M1 (Homo sapiens)
MEASUREMENT_UNIT: %
inhibition: 1.07

COMPOUND: CC(C(=O)Nc1ccc(Cl)cc1Cl)N1CC=C(c2ccccc2)CC1 (configuration not stated)
TARGET: Muscarinic acetylcholine receptor M1 (Homo sapiens)
MEASUREMENT_UNIT: %
inhibition: 18.7

COMPOUND: O=C(Nc1cccc(OC(=O)N2CCCCC2)c1)N1CCOCC1
TARGET: Muscarinic acetylcholine receptor M1 (Homo sapiens)
MEASUREMENT_UNIT: %
inhibition: 12.4

COMPOUND: O=C(COc1ccc2ccccc2c1)N1CCN(Cc2ccncc2)CC1
TARGET: Muscarinic acetylcholine receptor M1 (Homo sapiens)
MEASUREMENT_UNIT: %
inhibition: 14.5

COMPOUND: CCn1cc(CN2CCCC(C(=O)c3cccc(C(F)(F)F)c3)C2)cn1 (configuration not stated)
TARGET: Muscarinic acetylcholine receptor M1 (Homo sapiens)
MEASUREMENT_UNIT: %
inhibition: 30.8

COMPOUND: COc1ccc(C(=O)C2CCCN(Cc3ccc(C)s3)C2)cc1OC (configuration not stated)
TARGET: Muscarinic acetylcholine receptor M1 (Homo sapiens)
MEASUREMENT_UNIT: %
inhibition: 52.6

COMPOUND: Cn1c(O)c(C(=Nc2ccc(F)cc2)c2ccccc2)c(=O)n(C)c1=O
TARGET: Muscarinic acetylcholine receptor M1 (Homo sapiens)
MEASUREMENT_UNIT: %
inhibition: -7.87

COMPOUND: Cc1nn(Cc2ccccc2Cl)c(Cl)c1C(=O)OC(C(=O)NC(N)=O)C(C)C (configuration not stated)
TARGET: Muscarinic acetylcholine receptor M1 (Homo sapiens)
MEASUREMENT_UNIT: %
inhibition: -7.79

COMPOUND: CSc1ccc(C(=O)C2CCCN(Cc3ccn[nH]3)C2)cc1 (configuration not stated)
TARGET: Muscarinic acetylcholine receptor M1 (Homo sapiens)
MEASUREMENT_UNIT: %
inhibition: 62.7

COMPOUND: CCOc1cccc(=NC2CCCCC2)c2c(C)[nH]c(C)c12
TARGET: Muscarinic acetylcholine receptor M1 (Homo sapiens)
MEASUREMENT_UNIT: %
inhibition: -4.64

COMPOUND: NC(=O)Nc1cccc(C(F)(F)F)c1
TARGET: Muscarinic acetylcholine receptor M1 (Homo sapiens)
MEASUREMENT_UNIT: %
inhibition: -7.02

COMPOUND: CC(=O)NCC1=C(c2ccc3ccccc3c2)C[C@@H]2CC[C@H]1N2Cc1ccco1
TARGET: Muscarinic acetylcholine receptor M1 (Homo sapiens)
MEASUREMENT_UNIT: %
inhibition: -9.51

COMPOUND: Cc1cc(=O)oc2c(C)c(OCC(=O)N3CCN(Cc4ccc5c(c4)OCO5)CC3)ccc12
TARGET: Muscarinic acetylcholine receptor M1 (Homo sapiens)
MEASUREMENT_UNIT: %
inhibition: -1.03

COMPOUND: O=C(NC1CCCCC1)N1Cc2cc(N3CCCCC3)ccc2-n2nncc2C1
TARGET: Muscarinic acetylcholine receptor M1 (Homo sapiens)
MEASUREMENT_UNIT: %
inhibition: 6.05

COMPOUND: Cc1ccsc1C(=O)C1CCCN(Cc2ccc(O)cc2)C1 (configuration not stated)
TARGET: Muscarinic acetylcholine receptor M1 (Homo sapiens)
MEASUREMENT_UNIT: %
inhibition: 7.02

COMPOUND: COC(=O)C(c1ccccc1)N1CCCCCC1 (configuration not stated)
TARGET: Muscarinic acetylcholine receptor M1 (Homo sapiens)
MEASUREMENT_UNIT: %
inhibition: -0.1

COMPOUND: CC[N+]1(C)CCCC(OC(=O)C(O)(c2ccccc2)c2ccccc2)C1 (configuration not stated)
TARGET: Muscarinic acetylcholine receptor M1 (Homo sapiens)
MEASUREMENT_UNIT: %
inhibition: 97.3
